Origin of values: patent US11834453B2

List of IC50 tested on EGFR (Homo sapiens (Human), UniProt P00533).
Sequence (P00533 25-1210): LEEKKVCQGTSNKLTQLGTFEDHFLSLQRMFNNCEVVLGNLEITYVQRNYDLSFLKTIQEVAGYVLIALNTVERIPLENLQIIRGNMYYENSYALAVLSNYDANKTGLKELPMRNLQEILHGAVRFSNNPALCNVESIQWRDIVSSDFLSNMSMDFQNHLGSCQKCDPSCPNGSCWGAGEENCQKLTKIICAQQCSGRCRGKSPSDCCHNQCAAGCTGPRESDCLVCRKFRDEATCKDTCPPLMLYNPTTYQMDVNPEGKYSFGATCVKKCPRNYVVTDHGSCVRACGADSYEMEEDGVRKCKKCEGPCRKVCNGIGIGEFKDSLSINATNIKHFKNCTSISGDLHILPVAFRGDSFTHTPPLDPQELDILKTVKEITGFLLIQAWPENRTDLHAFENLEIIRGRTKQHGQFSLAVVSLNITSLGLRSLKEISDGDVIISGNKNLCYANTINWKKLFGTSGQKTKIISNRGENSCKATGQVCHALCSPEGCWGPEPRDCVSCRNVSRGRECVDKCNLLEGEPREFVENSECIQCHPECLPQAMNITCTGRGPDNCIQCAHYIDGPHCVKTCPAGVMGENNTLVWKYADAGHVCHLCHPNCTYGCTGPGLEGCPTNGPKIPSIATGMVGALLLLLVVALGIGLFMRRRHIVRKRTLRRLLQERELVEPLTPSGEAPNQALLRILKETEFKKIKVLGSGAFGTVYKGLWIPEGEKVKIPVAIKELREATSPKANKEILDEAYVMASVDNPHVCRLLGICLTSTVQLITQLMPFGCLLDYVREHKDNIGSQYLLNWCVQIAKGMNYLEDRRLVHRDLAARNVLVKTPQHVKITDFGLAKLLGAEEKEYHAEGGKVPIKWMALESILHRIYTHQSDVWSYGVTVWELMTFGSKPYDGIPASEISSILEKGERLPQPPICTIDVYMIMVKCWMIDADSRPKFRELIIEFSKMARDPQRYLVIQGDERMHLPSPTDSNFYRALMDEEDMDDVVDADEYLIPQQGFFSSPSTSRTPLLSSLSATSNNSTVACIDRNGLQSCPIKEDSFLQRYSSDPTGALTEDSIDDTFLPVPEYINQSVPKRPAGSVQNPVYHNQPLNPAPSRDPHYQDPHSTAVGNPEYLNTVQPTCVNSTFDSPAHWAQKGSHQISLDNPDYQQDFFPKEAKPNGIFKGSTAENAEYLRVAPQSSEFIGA
Note: unit µM is implicit; provide only the numeric part.

Known results for compounds:
1. O[C@H]1C[C@H]2C[C@@H]1CN2c1ncc2ncnc(Nc3ccc(Oc4ccn5ncnc5c4)c(Cl)c3)c2n1 [Example 335]; 4.11
2. Cc1cc(Nc2ncnc3cnc(N4CCO[C@H](C)C4)nc23)ccc1Oc1ccc2c(c1)ncn2C [Example 265]; 5.35

Switching to the query record.
Problem: Give measured IC50 for Cc1c(Oc2ccn3ncnc3c2)ccc(Nc2ncnc3cnc(N(C)CC4(O)CC4)nc23)c1F [Example 314] (EGFR (Homo sapiens (Human), UniProt P00533)).
Solution: 6.08

###

log10 of IC50, UniProtKB P00533: measured values
Note: values are log10 of IC50 expressed in µM.

1. COC[C@H]1CCN1c1ncc2ncnc(Nc3ccc(Oc4ccn5ncnc5c4)c(Cl)c3)c2n1; 0.64

Problem: Report value only: log10 of IC50, UniProtKB P00533, CNc1ncc2ncnc(Nc3ccc(Oc4ccc5c(c4)ncn5C)c(C)c3)c2n1
Solution: 0.69

Problem: GET log10 of IC50 where system = UniProtKB P00533 and item = Cc1cc(Nc2ncnc3cnc(NCC(F)F)nc23)ccc1Oc1cc(F)c2c(c1)ncn2C
Solution: 0.24

Problem: Provide log10 of IC50, system UniProtKB P00533, entry Cc1cc(Nc2ncnc3cnc(N4CCO[C@H]5C[C@H]54)nc23)ccc1Oc1ccc2c(c1)ncn2C [Example 161]
Solution: 0.92

Problem: Recall the reported log10 of IC50 of Cc1cc(Nc2ncnc3cnc(N(C)[C@H]4CCOC4)nc23)ccc1Oc1ccn2ncnc2c1 when tested on UniProtKB P00533.
Solution: 0.70

Problem: Quote UniProtKB P00533 log10 of IC50 for entry Clc1cc(Nc2ncnc3cnc(N4CCC45COC5)nc23)ccc1Oc1ccn2ncnc2c1 .
Solution: -0.10

Problem: Give UniProtKB P00533 log10 of IC50 for the following molecule: Cc1cc(Nc2ncnc3cnc(N[C@@H]4CNCC4(F)F)nc23)ccc1Oc1ccc2c(c1)ncn2C
Solution: 0.52

Problem: Please respond with reported log10 of IC50 (system UniProtKB P00533) for Cc1c(Oc2ccn3ncnc3c2)ccc(Nc2ncnc3cnc(N(C)CC4(O)CCC4)nc23)c1F .
Solution: 0.57

###

// reported pIC50 for each item listed
test_target: ErbB2 with Exon 20 YVMA insertion (HER2-YVMA) (Homo sapiens (Human), UniProt P04626, INS775YVMA)
Sequence (P04626 other isoform, or with tags, fused parts or gaps ins YVMA behind 775): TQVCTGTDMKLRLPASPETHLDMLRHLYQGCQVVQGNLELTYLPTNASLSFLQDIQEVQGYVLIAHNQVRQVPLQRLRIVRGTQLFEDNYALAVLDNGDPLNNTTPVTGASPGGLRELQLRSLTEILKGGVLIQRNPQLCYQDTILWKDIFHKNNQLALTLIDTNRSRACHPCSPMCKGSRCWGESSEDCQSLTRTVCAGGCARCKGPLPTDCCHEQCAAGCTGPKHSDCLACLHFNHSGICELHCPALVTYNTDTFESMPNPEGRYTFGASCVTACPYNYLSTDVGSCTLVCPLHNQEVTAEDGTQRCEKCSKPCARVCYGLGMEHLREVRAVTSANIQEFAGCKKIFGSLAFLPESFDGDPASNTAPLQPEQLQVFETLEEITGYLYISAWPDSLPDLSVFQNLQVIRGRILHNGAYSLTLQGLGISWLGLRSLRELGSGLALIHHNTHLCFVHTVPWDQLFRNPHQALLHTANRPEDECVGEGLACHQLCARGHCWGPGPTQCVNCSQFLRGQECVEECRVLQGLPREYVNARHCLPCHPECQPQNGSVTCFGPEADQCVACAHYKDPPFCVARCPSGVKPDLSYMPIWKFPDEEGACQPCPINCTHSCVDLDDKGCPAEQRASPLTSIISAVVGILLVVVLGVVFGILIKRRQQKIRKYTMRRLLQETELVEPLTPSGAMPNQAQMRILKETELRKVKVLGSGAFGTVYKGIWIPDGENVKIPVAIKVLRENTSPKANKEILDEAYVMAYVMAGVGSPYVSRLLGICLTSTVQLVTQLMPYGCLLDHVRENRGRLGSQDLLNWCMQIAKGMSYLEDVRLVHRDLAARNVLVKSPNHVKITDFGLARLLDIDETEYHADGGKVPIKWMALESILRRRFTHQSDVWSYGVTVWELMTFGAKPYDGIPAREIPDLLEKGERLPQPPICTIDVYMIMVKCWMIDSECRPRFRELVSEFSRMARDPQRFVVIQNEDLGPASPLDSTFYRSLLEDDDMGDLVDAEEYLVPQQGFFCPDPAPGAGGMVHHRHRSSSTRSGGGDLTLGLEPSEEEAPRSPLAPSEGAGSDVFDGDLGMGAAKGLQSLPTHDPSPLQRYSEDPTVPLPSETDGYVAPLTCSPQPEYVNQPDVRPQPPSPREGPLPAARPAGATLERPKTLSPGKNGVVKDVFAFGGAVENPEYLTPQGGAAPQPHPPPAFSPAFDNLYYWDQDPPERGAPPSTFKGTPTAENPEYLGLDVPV
test_name: Cellular phosphorylation assay, constitutive ErbB2 phosphorylation (Y1196) in engineered NIH 3T3 cells, Assay 4
As a rule, pIC50 stands for the negative log10 of the concentration, concentration in M.

1) Cc1cc(Nc2ncnc3cnc(N4CCOCC4)nc23)c(F)cc1Oc1ccc2c(c1)ncn2C.O=C(O)C(F)(F)F [Example 78, 2,2,2-trifluoroacetate]; 7.44
2) Cc1cc(Nc2ncnc3cnc(N4CC[C@@](C)(O)C4)nc23)ccc1Oc1ccn2ncnc2c1 [Example 110]; 7.21
3) Cc1cc(Nc2ncnc3cnc(N(C)C[C@H](C)O)nc23)ccc1Oc1ccc2c(c1)ncn2C [Example 195]; 8.00
4) C[C@@H]1COCCN1c1ncc2ncnc(Nc3ccc(Oc4ccc5c(c4)ncn5C)c(Cl)c3)c2n1 [Example 144]; 7.42
5) Cn1cnc2cc(Oc3ccc(Nc4ncnc5cnc(N6CC7CCC(C6)O7)nc45)cc3Cl)ccc21 [Example 447]; 7.91
6) CNc1ncc2ncnc(Nc3ccc(Oc4ccc5c(c4)ncn5C)c(C)c3)c2n1 [Example 4]; 8.14

Problem: Write down pIC50 measured for item Cc1c(Oc2ccn3ncnc3c2)ccc(Nc2ncnc3cnc(N4CC[C@H](O)C4)nc23)c1F [Example 311]
Solution: 5.48
